Experiment: melting temperature; fluorescence melt of hairpins on a sequencing array, two-state fit, raised by 9.35 °C to match UV melts
Test Settings: sodium 0.088 M
Result Type: Tm (°C)
Just the number please, in °C, no unit attached.

Some solved entries appear below for comparison.
{"Chain Sequence": "GTACGGGGAAACTCGTAC (((((.(....).)))))", "Result Type": "Tm", "Endpoint Result": 50.7}
{"Chain Sequence": "GCCGTCTCGAAAGAGGGC (((..(((....))))))", "Result Type": "Tm", "Endpoint Result": 50.6}

The record that follows has no Tm shown yet.
Query: Please report the measured Tm for GGCGGTACGAAAGTAGCC (((..(((....))))))
Result: 50.7

* * *

Experiment: melting temperature; fluorescence melt of hairpins on a sequencing array, two-state fit, raised by 9.35 °C to match UV melts
Test Settings: sodium 0.088 M
We begin with a simple list: items and their reported Tm.
Just the number please, in °C, no unit attached.

Some solved entries appear below for comparison.
{"Chain Sequence": "GTGAGAGGAAACTCTCAC (((((((....)))))))", "Tm (°C)": 61.7}
{"Chain Sequence": "GGCAGGGGAAACCCTGTC (.(((((....))))).)", "Tm (°C)": 55.9}
{"Chain Sequence": "GCGAGAATTCGC ((((....))))", "Tm (°C)": 55.3}
{"Chain Sequence": "GGATATCCGAAAGGATCC (((..(((....))))))", "Tm (°C)": 32.3}
{"Chain Sequence": "GATCGTGATAACGATC ((((((....))))))", "Tm (°C)": 63.6}
{"Chain Sequence": "GCTCGCGAAAGCGGTAGC ((((((....)))..)))", "Tm (°C)": 51}
{"Chain Sequence": "GCACAGCGAAAGCGGCGC ((.(.((....)).).))", "Tm (°C)": 63.7}
{"Chain Sequence": "GTGGACGAAAGTCCCAC ((((((....))).)))", "Tm (°C)": 48.8}
{"Chain Sequence": "GCCACAGGAAACTATGGC ((((.((....)).))))", "Tm (°C)": 39.3}
{"Chain Sequence": "GATTGGGGAAACCCAATC (((((((....)))))))", "Tm (°C)": 61}

Query: Please report the measured Tm for GTACAGCGAAAGCTATAC (((.(((....))).)))
Result: 36.9

* * *

We begin with a simple list: items and their reported Tm.
Experiment: melting temperature; fluorescence melt of hairpins on a sequencing array, two-state fit, raised by 9.35 °C to match UV melts
Test Settings: sodium 0.088 M
Just the number please, in °C, no unit attached.

{"Chain Sequence": "GAGTGCCGAAAGGCCCTC (((.(((....))).)))", "Unit Name": "°C", "Tm": 51.3}
{"Chain Sequence": "GTATTCGAAAGAATAC ((((((....))))))", "Unit Name": "°C", "Tm": 54.6}
{"Chain Sequence": "GATCGATGCTCGATC ((((((...))))))", "Unit Name": "°C", "Tm": 51.8}
{"Chain Sequence": "GTGAATGGAAACGTTCAC (((((.(....).)))))", "Unit Name": "°C", "Tm": 47.1}
{"Chain Sequence": "GATCTGTGGTCAGATC ((((((....))))))", "Unit Name": "°C", "Tm": 49.6}

Query: Please report the measured Tm for GCACCCCGAAAGGGTTGC (((.(((....))).)))
Result: 55.1

Query: Please report the measured Tm for GAGAATGGAAACGTTCTC (((((.(....).)))))
Result: 42.9

Query: Please report the measured Tm for GCGAATTGTCGC ((((....))))
Result: 46

Query: Please report the measured Tm for GCGTGCGAAAGCACACGC ((((((....)))..)))
Result: 64.5

Query: Please report the measured Tm for GAATCTGAAAAGATTC ((((((....))))))
Result: 49.8

* * *

Experiment: melting temperature; fluorescence melt of hairpins on a sequencing array, two-state fit, raised by 9.35 °C to match UV melts
Test Settings: sodium 0.088 M
We begin with a simple list: items and their reported Tm.
Just the number please, in °C, no unit attached.

Some solved entries appear below for comparison.
{"Chain Sequence": "GATCCTCATCAGGATC ((((((....))))))", "Unit Name": "°C", "Tm": 49.7}
{"Chain Sequence": "GTGTGTGGAAACATACAC ((((.((....)).))))", "Unit Name": "°C", "Tm": 48.6}
{"Chain Sequence": "GCTCTCGAAAGAGCGAGC ((((((....)))..)))", "Unit Name": "°C", "Tm": 49.3}
{"Chain Sequence": "GGCTATCGAAAGATGCC (((.(((....))))))", "Unit Name": "°C", "Tm": 52.8}
{"Chain Sequence": "GGTTGTGGAAACATGACC (((..((....))..)))", "Unit Name": "°C", "Tm": 39.2}
{"Chain Sequence": "GATCCCTGTGGGGATC ((((((....))))))", "Unit Name": "°C", "Tm": 65.3}
{"Chain Sequence": "CGTTGCGGAAACGCGACG (((.(((....))).)))", "Unit Name": "°C", "Tm": 67.4}
{"Chain Sequence": "GCAAGCGAAAGCTTATGC ((((((....)))..)))", "Unit Name": "°C", "Tm": 39.8}

Query: Please report the measured Tm for GCCAAGCGAAAGCATGGC ((((.((....)).))))
Result: 67

Query: Please report the measured Tm for GGAACACCGAAAGGTTCC (((..(((....))))))
Result: 42.2

Query: Please report the measured Tm for GCAAATGGAAACATTTAC (.(((((....))))).)
Result: 28.1

Query: Please report the measured Tm for GATGAAGGAAACCTCATC (((((.(....).)))))
Result: 36.1

* * *

Experiment: folding enthalpy; higher = less favourable; fluorescence melt of hairpins on a sequencing array, two-state fit
Test Settings: sodium 0.088 M
Result Type: folding enthalpy
Write the quantity with the unit trailing the number.

{"Chain Sequence": "GCTCGGCGAAAGCGTAGC (((..((....))..)))", "Endpoint Result": "-12.9 kcal/mol"}
{"Chain Sequence": "GTGTTTCGAAAGAATCAC (((.(((....))).)))", "Endpoint Result": "-39.3 kcal/mol"}

The record that follows has no folding enthalpy shown yet.
Query: Please report the measured folding enthalpy for GGCCGGCCGAAAGGCGCC (((..(((....))))))
Result: -15.1 kcal/mol

* * *

Experiment: melting temperature; fluorescence melt of hairpins on a sequencing array, two-state fit, raised by 9.35 °C to match UV melts
Test Settings: sodium 0.088 M
We begin with a simple list: items and their reported Tm.
Just the number please, in °C, no unit attached.

Query: Please report the measured Tm for CGTAACGGAAACGTGACG (((.(((....))).)))
Result: 49.6

Query: Please report the measured Tm for GCGTCAATACGC ((((....))))
Result: 51.4

Query: Please report the measured Tm for GAGACGGGAAACTGTCTC (((((.(....).)))))
Result: 51.5

* * *

Experiment: folding enthalpy; higher = less favourable; fluorescence melt of hairpins on a sequencing array, two-state fit
Test Settings: sodium 0.088 M
// n strictly below -20 kcal/mol in folding enthalpy; y otherwise

Examples from the recorded data:
{"Chain Sequence": "GATCTGGCAACAGATC ((((((....))))))", "Answer Label": "n"}
{"Chain Sequence": "GGTGGTGGAAACACTGCC ((..(((....)))..))", "Answer Label": "n"}
{"Chain Sequence": "GGAATGGGAAACCATCCC ((.((((....)))).))", "Answer Label": "n"}
{"Chain Sequence": "GGAGATACGAAAGTATCC (((..(((....))))))", "Answer Label": "y"}
{"Chain Sequence": "GGGCGTGCGAAAGCACCC (((..(((....))))))", "Answer Label": "y"}

Now let's try a different one.
Query: Determine whether measured folding enthalpy meets or exceeds -20 kcal/mol for GCGTATGGAAACGTATGC ((.((.(....).)).))
Result: n

* * *

Experiment: melting temperature; fluorescence melt of hairpins on a sequencing array, two-state fit, raised by 9.35 °C to match UV melts
Test Settings: sodium 0.088 M
We begin with a simple list: items and their reported Tm.
Just the number please, in °C, no unit attached.

Some solved entries appear below for comparison.
{"Chain Sequence": "GGGCTTGCGAAAGCACCC (((..(((....))))))", "Result Type": "Tm", "Unit Name": "°C", "Endpoint Result": 45.6}
{"Chain Sequence": "GCGTGAAGACGC ((((....))))", "Result Type": "Tm", "Unit Name": "°C", "Endpoint Result": 58.3}
{"Chain Sequence": "GCGTAGGAAACTACGC ((((((....))))))", "Result Type": "Tm", "Unit Name": "°C", "Endpoint Result": 67.1}

Query: Please report the measured Tm for GTCGATGAAAATCGAC ((((((....))))))
Result: 61.3

Query: Please report the measured Tm for GATCCGCACTCGGATC ((((((....))))))
Result: 56.5

Query: Please report the measured Tm for GGGCAGGGAAACCCGCCC ((((.((....)).))))
Result: 60

Query: Please report the measured Tm for GCAGTGCGAAAGCAGGGC ((..(((....)))..))
Result: 58.4

Query: Please report the measured Tm for GCCGGGCGAAAGCTCTGC ((.(.((....)).).))
Result: 41.4

Query: Please report the measured Tm for GGCCCAGGAAACTGAGCC (((.(((....))).)))
Result: 49

Query: Please report the measured Tm for GGATTCGAAAGAACATCC ((((((....)))..)))
Result: 29.4

Query: Please report the measured Tm for GATCAATGATTTGATC ((((((....))))))
Result: 44.8

Query: Please report the measured Tm for GAACGCGAAAGCGAATTC ((((((....)))..)))
Result: 28.8

Query: Please report the measured Tm for GTACTCGAAAGAGTCTAC ((((((....)))..)))
Result: 35.5

Query: Please report the measured Tm for GACGCCGAAAGGCCAGTC ((((((....)))..)))
Result: 40.7

Query: Please report the measured Tm for AGGAAGAAATTCCT (((((....)))))
Result: 28.9

Query: Please report the measured Tm for GGGCGACGAAAGTCTCCC (((.(((....))).)))
Result: 53.6

Query: Please report the measured Tm for GGTAGCGAAAGCTCGACC ((((((....)))..)))
Result: 34.6

Query: Please report the measured Tm for GAGGGGCGAAAGCCTCTC (((.(((....))).)))
Result: 58

Query: Please report the measured Tm for GCCGAGGGAAACCCCAGC ((.(.((....)).).))
Result: 25.2

Query: Please report the measured Tm for GATCTCGTTCGAGATC ((((((....))))))
Result: 60.9

Query: Please report the measured Tm for GGTGTCGAAAGACGAACC ((((((....)))..)))
Result: 40.9

Query: Please report the measured Tm for GATCGATCGCTCGATC ((((((....))))))
Result: 52.4

Query: Please report the measured Tm for GTTACTCGAAAGAGAAC (((.(((....))))))
Result: 31.5
